Please go through the items and note down their Purity (%).
# ASSAY_NAME: Stability test (appearance by naked eye, purity by liquid chromatography after storage)
# Assay type: physicochemical
# SETTINGS: Condition 3: 80° C. for 25 days
# Method: Appearance and purity of each crystal obtained in Examples 1-3 and an amorphous obtained by freeze-drying a solution of KMD-3213 in dioxane were determined after allowing to stand under following conditions. As for appearance, it was determined by color and properties with the naked eye. Purity was determined by integral percentage method with liquid chromatography. Condition 1: Allowing to stand at 40° C. in the constant temperature device for 28 days […]
Report the value in % with no unit label.

Return value of Purity (%) for input C[C@H](Cc1cc2c(c(C(N)=O)c1)N(CCCO)CC2)NCCOc1ccccc1OCC(F)(F)F [β, KMD-3213] , no commentary.
98.42

Return Purity (%) for the following compound: C[C@H](Cc1cc2c(c(C(N)=O)c1)N(CCCO)CC2)NCCOc1ccccc1OCC(F)(F)F [γ, KMD-3213]
99.64

Find the measured Purity (%) of C[C@H](Cc1cc2c(c(C(N)=O)c1)N(CCCO)CC2)NCCOc1ccccc1OCC(F)(F)F [α, KMD-3213] and report it.
99.58

Report measured Purity (%); entry is C[C@H](Cc1cc2c(c(C(N)=O)c1)N(CCCO)CC2)NCCOc1ccccc1OCC(F)(F)F [amorphous, KMD-3213]
99.53
